# System: PPARg homodimer (NR concentration 180 nM)
# experimental_protocol: PBM binding z-score (relative to random genomic background probes); higher = stronger binding; sequences stand for … in GC…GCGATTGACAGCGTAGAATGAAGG
reported_metric: PBM binding z-score
Give a plain numeric answer without units written out.

Example cases with answers are listed next.
# sequence_record, readout_number
records = [
    ("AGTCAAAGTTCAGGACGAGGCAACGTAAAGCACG", 1.12),
    ("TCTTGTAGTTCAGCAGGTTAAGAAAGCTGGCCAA", 0.434),
    ("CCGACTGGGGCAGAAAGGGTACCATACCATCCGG", -0.287),
]

q: # input sequence: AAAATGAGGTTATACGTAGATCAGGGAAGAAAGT ; wanted: its PBM binding z-score
a: 0.818

q: Given the entry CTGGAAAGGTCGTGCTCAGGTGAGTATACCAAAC , report its measured PBM binding z-score.
a: 1.33

q: State the recorded PBM binding z-score for this entry: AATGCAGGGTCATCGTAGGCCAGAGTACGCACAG
a: 2.03

q: For the sequence shown here, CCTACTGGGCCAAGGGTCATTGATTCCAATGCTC , give the reported PBM binding z-score.
a: 1.67

q: Quick one: PBM binding z-score of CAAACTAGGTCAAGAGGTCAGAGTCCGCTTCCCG ?
a: 6.51

====

# Test system: LXRa:RXRa (NR concentration 270 nM, RXRa partner concentration 90 nM)
# experimental_protocol: PBM binding z-score (relative to random genomic background probes); higher = stronger binding; sequences stand for … in GC…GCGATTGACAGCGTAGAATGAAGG
So basically: PBM binding z-score at 0.9 or higher? That is met. Lower than 0.9? That is not met.

Consider the following illustrative entries.
# sequence_record, system_under_test, group_label
records = [
    ("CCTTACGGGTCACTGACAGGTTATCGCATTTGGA", "LXRa:RXRa (NR concentration 270 nM, RXRa partner concentration 90 nM)", "met"),
    ("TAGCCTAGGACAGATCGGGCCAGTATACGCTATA", "LXRa:RXRa (NR concentration 270 nM, RXRa partner concentration 90 nM)", "not met"),
    ("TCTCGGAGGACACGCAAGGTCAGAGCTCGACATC", "LXRa:RXRa (NR concentration 270 nM, RXRa partner concentration 90 nM)", "met"),
    ("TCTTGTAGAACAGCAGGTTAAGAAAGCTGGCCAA", "LXRa:RXRa (NR concentration 270 nM, RXRa partner concentration 90 nM)", "not met"),
    ("ACTAGCAGGCCAAGGGTCACGCAAGATTAGTCCG", "LXRa:RXRa (NR concentration 270 nM, RXRa partner concentration 90 nM)", "met"),
    ("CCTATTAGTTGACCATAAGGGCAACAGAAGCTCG", "LXRa:RXRa (NR concentration 270 nM, RXRa partner concentration 90 nM)", "not met"),
]

q: Evaluate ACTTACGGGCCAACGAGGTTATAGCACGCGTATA : PBM binding z-score at minimum 0.9?
a: not met

q: Could you verify whether the entry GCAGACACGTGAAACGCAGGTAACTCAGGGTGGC shows PBM binding z-score of no less than 0.9?
a: not met

q: Could you tell me if the measured PBM binding z-score of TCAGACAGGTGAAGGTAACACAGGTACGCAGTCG reaches 0.9 or more?
a: met

q: Determine whether measured PBM binding z-score meets or exceeds 0.9 for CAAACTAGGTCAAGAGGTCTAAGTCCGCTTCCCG
a: met

q: Exam item: decide whether the reported PBM binding z-score for CCAGACAGGTGAAAGGTAACTCTGTCTGGTACGC is at least 0.9.
a: met

q: Please tell me: is the sequence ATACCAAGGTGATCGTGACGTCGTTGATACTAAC at or over 0.9 in terms of PBM binding z-score?
a: not met

q: Determine whether measured PBM binding z-score meets or exceeds 0.9 for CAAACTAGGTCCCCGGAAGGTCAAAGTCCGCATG
a: met

====

# Test system: PPARg:RXRa (NR concentration 180 nM, RXRa partner concentration 90 nM)
# experimental_protocol: PBM binding z-score (relative to random genomic background probes); higher = stronger binding; sequences stand for … in GC…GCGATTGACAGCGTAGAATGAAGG
Lab note: compare PBM binding z-score against 5. Equal or greater, write YES. Smaller, write NO.

Example results:
# sequence_record, group_label
rows = [
    ("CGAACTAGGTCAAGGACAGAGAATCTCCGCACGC", "YES"),
    ("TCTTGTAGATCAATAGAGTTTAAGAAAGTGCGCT", "NO"),
    ("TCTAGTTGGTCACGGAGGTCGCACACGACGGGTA", "NO"),
    ("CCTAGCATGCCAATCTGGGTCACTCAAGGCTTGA", "NO"),
]

q: # check: PBM binding z-score of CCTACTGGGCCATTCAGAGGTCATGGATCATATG is greater than or equal to 5
a: NO

q: API: above_or_equal(metric=PBM binding z-score, cutoff=5) for item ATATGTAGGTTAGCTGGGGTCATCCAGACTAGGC
a: YES

q: Is PBM binding z-score at least 5? Consider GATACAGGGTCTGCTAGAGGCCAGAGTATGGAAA
a: NO

q: Determine whether measured PBM binding z-score meets or exceeds 5 for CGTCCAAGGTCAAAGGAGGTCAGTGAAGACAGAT
a: YES

q: hey, is PBM binding z-score for this one >= 5? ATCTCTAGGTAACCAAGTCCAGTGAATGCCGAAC
a: NO

q: Is the recorded value of PBM binding z-score equal to or greater than 5 for this sequence? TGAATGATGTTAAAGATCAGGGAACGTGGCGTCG
a: NO

q: Does the reported PBM binding z-score for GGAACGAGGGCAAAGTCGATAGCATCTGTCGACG fall at or above the 5 mark?
a: NO

====

Examples of sequences with documented PBM binding z-score follow.
# Tested on: PPARg:RXRa 90nM:30nM, anti-RXR (NR concentration 90 nM, RXRa partner concentration 30 nM)
# experimental_protocol: PBM binding z-score (relative to random genomic background probes); higher = stronger binding; sequences stand for … in GC…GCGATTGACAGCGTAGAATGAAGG
Write the number on its own, no unit after it.

A selection of reference data follows.
# sequence_record, system_under_test, PBM binding z-score
rows = [
    ("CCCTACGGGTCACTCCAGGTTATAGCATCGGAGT", "PPARg:RXRa 90nM:30nM, anti-RXR (NR concentration 90 nM, RXRa partner concentration 30 nM)", 1.6),
    ("GGAACGAGGGCAATGTTGATAGCATCTGTCGACG", "PPARg:RXRa 90nM:30nM, anti-RXR (NR concentration 90 nM, RXRa partner concentration 30 nM)", 0.931),
    ("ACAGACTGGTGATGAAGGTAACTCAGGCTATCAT", "PPARg:RXRa 90nM:30nM, anti-RXR (NR concentration 90 nM, RXRa partner concentration 30 nM)", -0.158),
]

q: What PBM binding z-score value was documented for this sequence, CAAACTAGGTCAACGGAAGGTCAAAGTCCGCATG ?
a: 7.49

q: What PBM binding z-score value was documented for this sequence, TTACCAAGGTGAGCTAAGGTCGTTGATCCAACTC ?
a: 0.771

q: Param item = TCGTATAGGTAAACAGGTGAAAGTCCGTAAGTTA ; retrieve measured PBM binding z-score.
a: 2.76

====

# Tested on: LXRa:RXRa (NR concentration 270 nM, RXRa partner concentration 90 nM)
# experimental_protocol: PBM binding z-score (relative to random genomic background probes); higher = stronger binding; sequences stand for … in GC…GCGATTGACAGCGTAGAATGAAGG
Kind request: treat 2 as inclusive, so PBM binding z-score at 2 or higher is criterion met, anything lower is criterion not met.

# sequence_record, group_label
records = [
    ("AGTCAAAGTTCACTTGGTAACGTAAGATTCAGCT", "criterion met"),
]

q: PBM binding z-score >= 2 for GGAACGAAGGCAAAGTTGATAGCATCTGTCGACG ?
a: criterion not met

q: Check if PBM binding z-score >= 2 (inclusive). Item: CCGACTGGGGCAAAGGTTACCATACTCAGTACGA
a: criterion not met

====

# Test system: LXRb homodimer (NR concentration 270 nM)
# experimental_protocol: PBM binding z-score (relative to random genomic background probes); higher = stronger binding; sequences stand for … in GC…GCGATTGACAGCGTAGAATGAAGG
If the reported PBM binding z-score equals or exceeds -0.001, assign MET. If not, assign NOT MET.

Previously resolved entries follow.
# sequence_record, system_under_test, group_label
records = [
    ("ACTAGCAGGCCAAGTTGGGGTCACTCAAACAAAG", "LXRb homodimer (NR concentration 270 nM)", "NOT MET"),
    ("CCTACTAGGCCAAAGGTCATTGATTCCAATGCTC", "LXRb homodimer (NR concentration 270 nM)", "MET"),
    ("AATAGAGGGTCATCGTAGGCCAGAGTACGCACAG", "LXRb homodimer (NR concentration 270 nM)", "MET"),
    ("GGAAAGAGGGCAAAGTTGATAGCATCTGTCGACG", "LXRb homodimer (NR concentration 270 nM)", "MET"),
    ("TAGCCTAGGTCATTCAGGGACCAGTATAGAAAGC", "LXRb homodimer (NR concentration 270 nM)", "MET"),
]

q: Could you verify whether the entry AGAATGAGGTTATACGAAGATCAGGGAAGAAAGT shows PBM binding z-score of no less than -0.001?
a: NOT MET

q: Check this sequence for PBM binding z-score at or above -0.001: GATACAGGGTCAGCTAGAGGCCAGAGAATGGAAA
a: NOT MET

q: Does the sequence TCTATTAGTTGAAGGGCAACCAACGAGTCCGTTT have recorded PBM binding z-score that is -0.001 or more?
a: MET

q: Is it the case that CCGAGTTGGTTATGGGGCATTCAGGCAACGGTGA has PBM binding z-score reaching or exceeding -0.001?
a: NOT MET

q: Check if PBM binding z-score >= -0.001 (inclusive). Item: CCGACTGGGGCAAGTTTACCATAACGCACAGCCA
a: NOT MET

q: # bool: PBM binding z-score of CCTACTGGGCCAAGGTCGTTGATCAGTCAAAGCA >= -0.001
a: NOT MET

q: # check: PBM binding z-score of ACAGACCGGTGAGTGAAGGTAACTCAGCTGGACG is greater than or equal to -0.001
a: NOT MET

Every entry's value here was drawn from the supplement of paper PMC6555819.
